What pEC50 was measured for each of the following?
# target_of_assay: Melatonin receptor type 1A (Homo sapiens, UniProt P48039)
# Sequence (P48039 whole entry): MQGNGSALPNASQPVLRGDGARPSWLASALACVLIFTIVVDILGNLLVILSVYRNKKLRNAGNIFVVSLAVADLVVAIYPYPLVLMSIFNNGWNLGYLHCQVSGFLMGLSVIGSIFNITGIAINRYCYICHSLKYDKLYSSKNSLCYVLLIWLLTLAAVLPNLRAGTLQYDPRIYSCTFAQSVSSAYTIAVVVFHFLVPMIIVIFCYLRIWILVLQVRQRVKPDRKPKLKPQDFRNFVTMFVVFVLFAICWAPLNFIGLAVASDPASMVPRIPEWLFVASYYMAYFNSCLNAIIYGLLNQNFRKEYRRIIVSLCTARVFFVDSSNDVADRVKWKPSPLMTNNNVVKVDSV
# procedure_details: Intrinsic activity at human MT1 receptor expressed in CHO cell membranes after 1 hr by [35S]GTPgammaS binding assay
Remember, pEC50 is on a log scale: it is -log10 of the molar concentration.

# get_value(readout='pEC50', item= COc1ccc2ccc3occ(CNC(=O)CF)c3c2c1 )
7.54

# get_value(readout='pEC50', item= COc1ccc2ccc3occ(CNC(=O)C(C)C)c3c2c1 )
8.09

# get_value(readout='pEC50', item= COc1ccc2ccc3oc(CNC(=O)C4CC4)cc3c2c1 )
9.00

# get_value(readout='pEC50', item= COc1ccc2ccc3oc(CNC(C)=O)cc3c2c1 )
8.11

---

# target_of_assay: Melatonin receptor type 1B (Homo sapiens)
# Sequence (P49286 whole entry): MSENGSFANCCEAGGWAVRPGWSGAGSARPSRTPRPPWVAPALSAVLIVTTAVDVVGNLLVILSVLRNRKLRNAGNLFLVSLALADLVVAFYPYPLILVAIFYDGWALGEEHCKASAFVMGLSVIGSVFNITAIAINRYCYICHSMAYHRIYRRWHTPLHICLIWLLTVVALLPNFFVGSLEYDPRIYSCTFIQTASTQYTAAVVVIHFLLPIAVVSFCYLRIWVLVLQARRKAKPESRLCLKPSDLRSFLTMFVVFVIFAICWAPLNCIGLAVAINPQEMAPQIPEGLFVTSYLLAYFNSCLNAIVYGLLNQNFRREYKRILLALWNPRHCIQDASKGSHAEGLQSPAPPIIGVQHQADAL
# procedure_details: Intrinsic activity at human MT2 receptor expressed in CHO cell membranes after 1 hr by [35S]GTPgammaS binding assay
# Type: functional
What pEC50 was measured for each of the following?
Remember, pEC50 is on a log scale: it is -log10 of the molar concentration.

# get_value(readout='pEC50', item= COc1ccc2ccc3occ(CNC(=O)CF)c3c2c1 )
8.47

# get_value(readout='pEC50', item= COc1ccc2ccc3occ(CCNC(=O)C4CC4)c3c2c1 )
8.49

# get_value(readout='pEC50', item= CCNC(=O)NCc1cc2c(ccc3ccc(OC)cc32)o1 )
8.00

# get_value(readout='pEC50', item= CCNC(=O)NCCc1coc2ccc3ccc(OC)cc3c12 )
8.21

# get_value(readout='pEC50', item= COc1ccc2ccc3oc(CNC(=O)C4CC4)cc3c2c1 )
9.01

---

attribute_measured: Ki
For clarity, give the value followed by its unit.

Hello, I am looking for reported Ki with Melatonin receptor type 1B (Homo sapiens) for COc1ccc2ccc3oc(CCNC(=O)C4CC4)cc3c2c1 . Could you help?
11 nM

Hello, I am looking for reported Ki with Melatonin receptor type 1B (Homo sapiens) for COc1ccc2ccc3oc(CNC(=O)C4CC4)cc3c2c1 . Could you help?
0.6 nM

Hello, I am looking for reported Ki with Melatonin receptor type 1B (Homo sapiens) for CCNC(=O)NCCc1cc2c(ccc3ccc(OC)cc32)o1 . Could you help?
46 nM

Hello, I am looking for reported Ki with Melatonin receptor type 1B (Homo sapiens) for COc1ccc2ccc3occ(CCNC(=O)C4CC4)c3c2c1 . Could you help?
13.3 nM

Hello, I am looking for reported Ki with Melatonin receptor type 1B (Homo sapiens) for COc1ccc2ccc3oc(CCNC(C)=O)cc3c2c1 . Could you help?
1.7 nM

Hello, I am looking for reported Ki with Melatonin receptor type 1B (Homo sapiens) for COc1ccc2ccc3occ(CNC(=O)C4CC4)c3c2c1 . Could you help?
15 nM

Hello, I am looking for reported Ki with Melatonin receptor type 1B (Homo sapiens) for COc1ccc2ccc3occ(CNC(=O)C(C)C)c3c2c1 . Could you help?
24 nM

Hello, I am looking for reported Ki with Melatonin receptor type 1B (Homo sapiens) for CNC(=S)NCc1cc2c(ccc3ccc(OC)cc32)o1 . Could you help?
0.8 nM

Hello, I am looking for reported Ki with Melatonin receptor type 1B (Homo sapiens) for COc1ccc2ccc3occ(CNC(C)=O)c3c2c1 . Could you help?
0.7 nM

Hello, I am looking for reported Ki with Melatonin receptor type 1B (Homo sapiens) for CCNC(=O)NCCc1coc2ccc3ccc(OC)cc3c12 . Could you help?
226 nM

Hello, I am looking for reported Ki with Melatonin receptor type 1B (Homo sapiens) for CCNC(=O)NCc1cc2c(ccc3ccc(OC)cc32)o1 . Could you help?
4.2 nM

Hello, I am looking for reported Ki with Melatonin receptor type 1B (Homo sapiens) for COc1ccc2ccc3oc(CNC(=O)CF)cc3c2c1 . Could you help?
0.7 nM

Hello, I am looking for reported Ki with Melatonin receptor type 1B (Homo sapiens) for CCNC(=S)NCc1cc2c(ccc3ccc(OC)cc32)o1 . Could you help?
7 nM

Hello, I am looking for reported Ki with Melatonin receptor type 1B (Homo sapiens) for COc1ccc2ccc3oc(CNC(C)=O)cc3c2c1 . Could you help?
0.4 nM

Hello, I am looking for reported Ki with Melatonin receptor type 1B (Homo sapiens) for COc1ccc2ccc3occ(CNC(=O)CF)c3c2c1 . Could you help?
2.1 nM
